Target: Human TLR4/MD-2 complex (human), O00206
Sequence (O00206 24-631, chain 1 of 2): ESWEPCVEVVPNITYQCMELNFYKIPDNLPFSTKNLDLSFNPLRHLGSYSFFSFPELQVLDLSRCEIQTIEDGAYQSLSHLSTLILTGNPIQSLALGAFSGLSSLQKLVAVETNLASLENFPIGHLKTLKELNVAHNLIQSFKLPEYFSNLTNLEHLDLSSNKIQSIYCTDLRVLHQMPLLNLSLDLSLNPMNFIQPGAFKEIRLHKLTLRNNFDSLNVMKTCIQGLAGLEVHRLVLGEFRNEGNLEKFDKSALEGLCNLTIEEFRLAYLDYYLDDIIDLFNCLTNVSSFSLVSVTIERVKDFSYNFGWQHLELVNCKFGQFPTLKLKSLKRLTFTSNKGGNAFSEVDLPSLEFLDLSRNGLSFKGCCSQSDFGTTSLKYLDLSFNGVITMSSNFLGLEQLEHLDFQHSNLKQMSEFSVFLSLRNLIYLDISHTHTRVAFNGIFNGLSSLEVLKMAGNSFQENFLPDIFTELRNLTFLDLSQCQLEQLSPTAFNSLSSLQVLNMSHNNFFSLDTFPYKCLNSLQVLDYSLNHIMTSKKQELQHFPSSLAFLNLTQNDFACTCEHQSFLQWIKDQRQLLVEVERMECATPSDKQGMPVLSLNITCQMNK
Sequence (chain, as listed by the source, chain 2 of 2): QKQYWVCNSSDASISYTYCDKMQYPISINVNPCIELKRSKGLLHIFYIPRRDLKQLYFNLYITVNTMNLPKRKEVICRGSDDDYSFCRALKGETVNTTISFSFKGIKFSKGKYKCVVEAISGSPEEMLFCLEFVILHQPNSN
Experiment: SPR; TLR4/MD-2 complex or TLR4 coated on a CM5 chip; A-box protein injected as analyte (0-5 µM on TLR4/MD-2, 0-10 µM on TLR4); Biacore T200, HBS-EP buffer pH 7.4
pKd: −log10 of the molar value.

| binder | pKd |
| --- | --- |
| Recombinant A-box without GST tag (HMGB1 A-box domain) (domain or fragment, modifications not checked) PRGKMSSYAFFVQTCREEHKKKHPDASVNFSEFSKKCSERWKTMSAKEKGKFEDMAKADKARYEREMKTYI | 5.81 |
